- testedTarget: SARS-CoV-2 BA.2 spike trimer variant (SARS-CoV-2 Omicron BA.2, UniProt P0DTC2 16-1213)
- assayInfo: ELISA
binders and their reported EC50
Entry rule: numbers only, all in nM.

The examples below pair each entry with its known result.
* 4-C3-A (antibody, V domains shown) VH: EVQLQQSGPELVKPGASVKISCKASGYSFTGYYMHWVKQSHGNILDWIGYIYPYNGVSSYNQKFKGKATLTVDKSSSTAYMELRSLTSEASAVYYCARAYGSSYDYYYGLDYWGQGTSVTVSS VL: DIVLTQSPASLAVSLGQRATISCKASQSVDYDGAGYMNWYQQKPGQPPKLLISSASNLQSGIPARFSGSGSGTDFTLNIHPVEEEDAATYYCQQSNDDPYTFGGGTKLEIK | 3.07
* 6-L8-A (antibody, V domains shown) VH: EVQLQQSVAELVRPGASVKLSCTPSGFNIKNTYMHWMKQRPEQGLEWIGRINPANDDTKYAPKFQDKATITADTSSNTAYLQLSSLTSEDTAIYYCVYDVRWYFDVWGTGTTVTVSS VL: DVVMTQTPLSLPVSLGDQASISCRSSQGLVHSNGNTYLHWYLQKPGQSPKLLIYKVSNRFSGVPDRFSGSGSGTDFTLKISRVEAEDLGVYFCSQSTHVPPTFGAGTKLELK | 20.6

Consider now this further binder.
Lookup: Look at this binder and give its reported EC50. 10-I12-A (antibody, V domains shown) VH: RVQLQQSGPELVRPGTSVKISCKASGYTFTDSYINWVTQRPGQGLDWIGWIFPGNDNTYYNEKFEGKATLTLDKSSSTAYMLLSSLTSEDSAVYFCARSGGLRLGFAYWGQGTLVTVSA VL: NIVLTQSPASLAVSRGQRATISCRASESVDSYGHSFIHWYQQKPGQPPKILIYLASKLESGVPARFSGSGSRTDFTLTIDPVEADDAATYYCQQNNEDPWTFGGGTKLEIK
Found: 81.1

From: patent US20230115257A1
